System: tRNA
Test: Aminoacylation assay (tRNA charging)
Format: biochemical
Settings: nsAA pAcF
OBSERVED PROPERTY: Km

Please give the measured Km for this molecule: pAcFRS.2.t1: pAcFRS variant L65V, A167D, R257G, SEQ ID NO: 8 (protein) MDEFEMIKRNTSEIISEEELREVLKKDEKSALIGFEPSGKIHLGHYLQIKKMIDLQNAGFDIIIVLADLHAYLNQKGELDEIRKIGDYNKKVFEAMGLKAKYVYGSEFQLDKDYTLNVYRLALKTTLKRARRSMELIAREDENPKVAEVIYPIMQVNGCHYRGVDVDVGGMEQRKIHMLARELLPKKVVCIHNPVLTGLDGEGKMSSSKGNFIAVDDSPEEIRAKIKKAYCPAGVVEGNPIMEIAKYFLEYPLTIKGPEKFGGDLTVNSYEELESLFKNKELHPMRLKNAVAEELIKILEPIRKRL 18 µM

Same lookup for pAcFRS.1.t2: pAcFRS variant A167D, R257C, F261E, SEQ ID NO: 6 (protein) MDEFEMIKRNTSEIISEEELREVLKKDEKSALIGFEPSGKIHLGHYLQIKKMIDLQNAGFDIIILLADLHAYLNQKGELDEIRKIGDYNKKVFEAMGLKAKYVYGSEFQLDKDYTLNVYRLALKTTLKRARRSMELIAREDENPKVAEVIYPIMQVNGCHYRGVDVDVGGMEQRKIHMLARELLPKKVVCIHNPVLTGLDGEGKMSSSKGNFIAVDDSPEEIRAKIKKAYCPAGVVEGNPIMEIAKYFLEYPLTIKCPEKEGGDLTVNSYEELESLFKNKELHPMRLKNAVAEELIKILEPIRKRL , please. 27 µM
